// note: pIC50 values for Matrix metalloproteinase-9 (Homo sapiens) were reported in different studies
One number for each entry, as −log10 of the molar value.

Example cases with answers are listed next.
- molecule: "CCCCCNC(=O)CC[C@H](NS(=O)(=O)c1ccc(-c2ccc(Br)cc2)cc1)C(=O)O"
  pIC50: 5.26
- molecule: "CC#CCOc1ccc(S(=O)(=O)CC2(C(=O)NO)CCN(c3c(C)noc3C)CC2)cc1"
  pIC50: 5.26

Report pIC50 for every entry below.
1. CC(C)N(C)[C@@H](CN(c1ccc(Oc2ccc(C(F)(F)F)cc2)cc1)S(C)(=O)=O)C(=O)NO
2. CNC(=O)[C@H](NC(=O)[C@H](CC(C)C)[C@@H](C)C(=O)NO)C(C)(C)C

**A:**
8.06
8.62

Okay, here is my list. What is pIC50 for each of these?
1. O=C(Oc1ccc2ccccc2c1)c1cccc(S)n1
2. CNC(=O)[C@H](Cc1ccccc1)NC(=O)[C@H](CC(C)C)[C@H](CSc1cccs1)C(=O)NO
3. CCC(C)ON(C(C(=O)NO)C(C)C)S(=O)(=O)c1ccc(OC)cc1 (centres undefined)

**A:**
1. 3.92
2. 9.17
3. 6.54

----------
log10(IC50) for Matrix metalloproteinase-9 (Homo sapiens, UniProt P14780), merged from several publications.
Values reflect log10 of reported IC50 (nM).

In the examples that follow, each entry is paired with its recorded log10(IC50).
- compound: "Cc1ccc(-c2ccc(S(=O)(=O)N[C@@H]3CC=CCN(O)C3=O)s2)cc1"
  log10(IC50): 0.95
- compound: "O=C(NO)C(CCn1nnc2ccccc2c1=O)COc1ccc(-c2ccccc2)cc1 (centres undefined)"
  log10(IC50): 0.00
- compound: "O=C(NO)[C@H]1CC2(CC2)CN(C(=O)OCc2ccccc2)[C@@H]1C(=O)N1CC=C(c2ccccc2)CC1"
  log10(IC50): 2.49
- compound: "Cc1cccc(C(=O)NO)c1N(C)S(=O)(=O)c1ccc(Oc2ccncc2)cc1"
  log10(IC50): 0.85
- compound: "NC(=O)CC[C@H](NS(=O)(=O)c1ccc(-c2ccccc2)cc1)C(=O)O"
  log10(IC50): 3.87

Dear reader, for each entry below, please note its log10(IC50).
1. O=C(c1cc2ccc(CCO)cc2[nH]1)N1CCCc2cnccc2C1
2. CSc1ccc(-c2ccc(S[C@H]3CC[C@@H](Cn4nnc5ccccc5c4=O)[C@@H]3C(=O)O)cc2)cc1
3. NC(=O)[C@H](Cc1ccccc1)NC(=O)[C@H](CS)NC(=O)c1cccs1
4. CC(C)[C@@H](NS(=O)(=O)c1ccc(NC(=O)c2ccccc2)cc1)C(=O)O
5. Cc1ccc(Oc2ccc(N(CCC(=O)NO)S(C)(=O)=O)cc2)cc1
6. COc1ccc(S(=O)(=O)N2C[C@H](NC(=O)[C@H](CCCCN)NC(=O)OC(C)(C)C)C[C@@H]2C(=O)NO)cc1

**A:**
1: 3.04; 2: 0.60; 3: 1.69; 4: 3.32; 5: 0.82; 6: 1.43

Kindly give each listed record's log10(IC50).
1. COc1ccc(S(=O)(=O)N(CC(=O)NCc2c(OC)cc(OC)cc2OC)C(CCSCc2ccccc2)C(=O)NO)cc1 (centres undefined)
2. CC(C)[C@H](C(=O)NO)N(Cc1cn(CCOCCOCCOCCF)nn1)S(=O)(=O)c1ccc(OCCF)cc1
3. Cc1ccc(Oc2ccc(N(C[C@H](NCc3cccnc3)C(=O)NO)S(C)(=O)=O)cc2)cc1
4. O=C(O)[C@@H](Cc1c[nH]c2ccccc12)NS(=O)(=O)c1ccc(Oc2ccccc2)cc1

**A:**
[-0.52, -0.70, 0.45, 2.40]

**Q:** // returns reported log10(IC50) for input `O=C(OCc1ccccc1Cl)c1cccc(=O)[nH]1`
**A:** 4.91
